- measurementProtocol: Components of the Cytosolic LPS Sensing Pathway: Gene Identification via Genome-wide siRNA Screen
- studyConditions: RAW264.7 macrophages, IL-1a HTRF, actives lie on both sides, screened at 100 nM (by protocol), cells primed 5 h with Pam3CSK4 first
- Experimental: Non-canonical inflammasome activation by cytosolic LPS is a critical component of the host response to Gram-negative bacterial infection, however we lack a comprehensive understanding of the cellular processes that control this pathway. […] Lipofectamine RNAiMAX Transfection Reagent ([…]; Invitrogen) was added in […] serum-free, antibiotic-free media to plate wells using a Thermo Scientific Matrix WellMate and Microplate Stacker. […] The plates were read on an EnVision plate reader (PerkinElmer). […]
Out of some 53,000 sequences screened, about 3,700 (7%) were called active.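 Rule for the calls: active = gene knockdowns whose robust z-score for IL-1 alpha signal is at least 2 or at most -2, so actives lie on both sides; inactive = the rest.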 The entries come from a sample that favours actives as a whole.
Valid outcomes are listed here; reply with one: active, inactive

# sequenceData, qualitativeLabel
data = [
    ("GGCUUUCAGAGUUAACAAATT against Ptpn4", "inactive"),
]

Query :: Record lookup: outcome of this test for GCAACAAUAAAUCGUACAGTT against Nupr1 ?
Result :: inactive

Query :: Look up the recorded call for GCCUGGAGACUACAUAUCCTT against Cdc20 in this test.
Result :: active

Query :: // param item: CCUCCUUUUUUCUCUGUCUTT against Ugt1a9 ; yields the recorded call
Result :: active
